The values you see were collected from ChEMBL document CHEMBL3085669.

tested on: Escherichia coli; experiment: Inhibition of Escherichia coli relA assessed as inhibition of (p)ppGpp synthesis at 1 mM by autoradiography in presence of [alpha32]GTP
experimental endpoint: inhibition (%)

a = CC(C)C(=O)Nc1nc2c(ncn2[C@H]2C[C@H](OC(=O)NCCCCCC(=O)O)[C@@H](COC(=O)NCCCCCC(=O)O)O2)c(=O)[nH]1
b = CC(C)C(=O)Nc1nc2c(ncn2[C@H]2C[C@H](OC(=O)NCC(=O)NCC(=O)O)[C@@H](COC(=O)NCC(=O)NCC(=O)O)O2)c(=O)[nH]1
# input Just tell me: smaller inhibition value, a or b ? Response format: the label of the selected entry.
# output a
(a: 25.6%, b: 66.3%)

* * *

test system: Escherichia coli; experiment: Inhibition of Escherichia coli relA assessed as inhibition of (p)ppGpp synthesis at 1 mM by autoradiography in presence of [alpha32]GTP
experimental endpoint: inhibition (%)

{"molecule": "CC(C)C(=O)Nc1nc2c(ncn2[C@H]2C[C@H](OC(=O)NC(CCC(=O)O)C(=O)O)[C@@H](COC(=O)N[C@@H](CCC(=O)O)C(=O)O)O2)c(=O)[nH]1 (stereo partly drawn)", "inhibition (%)": 50.6}

P = CC(C)C(=O)Nc1nc2c(ncn2[C@H]2C[C@H](OC(=O)NCC(=O)O)[C@@H](COC(=O)NCC(=O)O)O2)c(=O)[nH]1
Q = CC(C)C(=O)Nc1nc2c(ncn2[C@H]2C[C@H](OC(=O)N(CCCN(C)C)CCCN(C)C)[C@@H](COC(=O)N(CCCN(C)C)CCCN(C)C)O2)c(=O)[nH]1
# input Just tell me: smaller inhibition value, P or Q ? Response format: the label of the selected entry.
# output Q

* * *

test system: Escherichia coli; assay: Inhibition of Escherichia coli relA assessed as inhibition of (p)ppGpp synthesis at 1 mM by autoradiography in presence of [alpha32]GTP
experimental endpoint: inhibition (%)

Guide cases for inhibition, answers given:
{"compound": "CC(C)C(=O)Nc1nc2c(ncn2[C@H]2C[C@H](OC(=O)NCCN(C)C)[C@@H](COC(=O)NCCN(C)C)O2)c(=O)[nH]1", "unit descriptor": "%", "inhibition": 31.2}
{"compound": "CC(C)C(=O)Nc1nc2c(ncn2[C@H]2C[C@H](OC(=O)NCC(=O)O)[C@@H](COC(=O)N[C@@H](CCC(=O)O)C(=O)O)O2)c(=O)[nH]1", "unit descriptor": "%", "inhibition": 52.1}

1 = CC(C)C(=O)Nc1nc2c(ncn2[C@H]2C[C@H](OC(=O)N[C@@H](CCC(=O)O)C(=O)O)[C@@H](COC(=O)NCC(=O)O)O2)c(=O)[nH]1
2 = CC(C)C(=O)Nc1nc2c(ncn2[C@H]2C[C@H](OC(=O)NC(CCC(=O)O)C(=O)NC(CCC(=O)O)C(=O)O)[C@@H](COC(=O)NC(CCC(=O)O)C(=O)NC(CCC(=O)O)C(=O)O)O2)c(=O)[nH]1 (some centres undefined)
# input Between the entries labelled 1 and 2 , which has a larger inhibition value on record? Response format: the label of the selected entry.
# output 2
